Hey, just so you know, these numbers are from PubChem BioAssay (NCI).

Test system: SF-268 CNS
Protocol Details: NCI tumour cell line growth inhibition, 48 h
Some compounds, each annotated with its measured GI50.

IN: Look up GI50: NCCn1c(=O)[nH]c(=O)[nH]c1=S
OUT: > 100 µM

IN: Look up GI50: COc1ccc(-c2nc3sc4c(c3c(=O)[nH]2)CCCCCC4)cc1
OUT: 13.9 µM

IN: Look up GI50: CCCCCCCCN=C(N)c1ccc(N2CCN(c3ccc(C(N)=NCCCCCCCC)cc3)CC2)cc1
OUT: 1.85 µM

IN: Look up GI50: O=C(O)/C=C\C(=O)N1C/C(=C\c2ccccc2Cl)C(=O)/C(=C/c2ccccc2Cl)C1
OUT: 1.67 µM

IN: Look up GI50: COc1ccc(/C(C#N)=C/c2ccccc2OC)cc1
OUT: 35.5 µM

IN: Look up GI50: COc1cccc2c1c(C(=O)C(=O)Nc1cc(C)no1)cn2Cc1ccc(F)cc1
OUT: 8.73 µM

IN: Look up GI50: COc1ccc(OC)c(/C=C2\SC(=S)NC2=O)c1
OUT: 31.4 µM

IN: Look up GI50: Cc1ccccc1[P+](Cc1ccccc1)(c1ccccc1)c1ccccc1
OUT: 3.44 µM

IN: Look up GI50: O=C1/C(=C\c2c[nH]c3ccccc23)c2ccccc2N1c1c(Cl)cccc1Cl
OUT: 1.6 µM

IN: Look up GI50: O=C(CCCCCCC(=O)Nc1ccc(N(CCCl)CCCl)cc1)NO
OUT: 1.08 µM

IN: Look up GI50: Nc1ccccc1C#C/C=C\C#Cc1cccs1
OUT: 4.26 µM

###

Tested on: U251 CNS
Protocol Details: NCI tumour cell line growth inhibition, 48 h
Where a SMILES comes first, the peptide text is derived from it. [ ]: non-standard residue; d: D form. The star is where a group is joined. X28 = COC1=CC(=O)N(C(=O)[C@@H](O*)C(C)C)[C@H]1Cc1ccccc1; NMeV = CN[C@H](C(=O)O)C(C)C; Hexanoyl = CCCCCC(=O)*
Measured Attribute: TGI

[[record]]
molecule = "C#CCOCn1cnc2c(Cl)ncnc21"
recorded_result = "> 100 µM"

[[record]]
molecule = "C=CCC[CH2][Sn]([c]1ccccc1)([c]1ccccc1)[c]1ccccc1"
recorded_result = "3.01 µM"

[[record]]
molecule = "O=C(N/C(=C\\c1ccc2c(c1)OCO2)c1nc2ccccc2[nH]1)c1ccccc1"
recorded_result = "> 100 µM"

[[record]]
molecule = "COc1ccc2nc(-c3ccc(-c4noc(-c5cc(OC)c(OC)c(OC)c5)n4)cc3)[nH]c2c1"
recorded_result = "4.88 µM"

[[record]]
molecule = "CCSCCC(N)C(=O)O (stereo not drawn)"
recorded_result = "> 100 µM"

[[record]]
molecule = "COc1ccc(-c2csc(N(C(=O)N3CCN(c4cc5c(cc4F)c(=O)c(C(=O)O)cn5C4CC4)CC3)c3ccccc3)n2)cc1"
recorded_result = "> 34.3 µM"

[[record]]
molecule = "CCCCCC(=O)N[C@H](C(=O)N[C@H](C(=O)N(C)[C@H](C(=O)N1CCC[C@H]1C(=O)N1CCC[C@H]1C(=O)O[C@H](C(=O)N1C(=O)C=C(OC)[C@@H]1Cc1ccccc1)C(C)C)C(C)C)C(C)C)C(C)C (Hexanoyl-VV[NMeV]PP-X28)"
recorded_result = "> 100 µM"


IN: Look up TGI: CC1OC(O[C@@H]2OC=C(C=O)[C@@]3(O)CC[C@H](C)[C@@H]23)C(O)C(O)C1O (stereo partly drawn)
OUT: > 100 µM
